Taken from patent EP0007672A1.

tested on: Candida albicans; test: MIC (Minimum Inhibitory Concentration); format: cell-based; conditions: read-out: MIC values, Candida albicans A 3191
One threshold, 10 µg/mL, splits the recorded MIC values: lower ones are t, equal or higher ones are f.

Solved entries (count: 5):
>>> print(df.to_string())
                                   compound  qualitative_label
0  [C-]#[N+]C(C1=CCCCCCC1)S(=O)(=O)c1ccc(C)cc1 (stereo not drawn) [Example 20]                  t
1  [C-]#[N+]C(=C1CCCCC1)S(=O)(=O)c1ccc(C)cc1 [Example 7]                  t
2  [C-]#[N+]C(=C1CCSCC1)S(=O)(=O)c1ccc(C)cc1 [Example 16a]                  f
3  [C-]#[N+]C(=C1CCCC1)S(=O)(=O)c1ccc(C)cc1 [Example 9]                  t
4  [C-]#[N+]C(C1=CCCCCC1)S(=O)(=O)c1ccc(C)cc1 (stereo not drawn) [Example 18b]                  f

Query string: Does this compound meet the criterion MIC < 10 µg/mL? Clc1ccc(COC(Cn2ccnc2)c2ccc(Cl)cc2Cl)c(Cl)c1 (stereo not drawn) [miconazole, reference compound]
Result string: t

Query string: Does this compound meet the criterion MIC < 10 µg/mL? [C-]#[N+]C(=C1CCOCC1)S(=O)(=O)c1ccc(C)cc1 [Example 14a]
Result string: f

Query string: Does this compound meet the criterion MIC < 10 µg/mL? [C-]#[N+]C(=C1CCCCC1)S(=O)(=O)c1ccccc1 [Example 25]
Result string: t

Query string: Does this compound meet the criterion MIC < 10 µg/mL? [C-]#[N+]C(=C1CCCCCC1)S(=O)(=O)c1ccc(C)cc1 [Example 18a]
Result string: t

* * *

system: Trichophyton rubrum; assay: MIC (Minimum Inhibitory Concentration); type: cell-based; conditions: Trichophyton rubrum 494-62, read-out: MIC values
reported_endpoint: MIC (µg/mL)
Give just the number in µg/mL; leave the unit off.

Study these solved cases before continuing.
In [3]: df
Out[3]:
                                   compound  units_symbol  number
0  [C-]#[N+]C(=CCCC)S(=O)(=O)c1ccc(C)cc1 [Example 24]         µg/mL      50
1  [C-]#[N+]C(C1=CCSCC1)S(=O)(=O)c1ccc(C)cc1 (stereo not drawn) [Example 16b]         µg/mL    12.5

Query string: Tell me MIC reported for [C-]#[N+]C(=C(C)c1cccs1)S(=O)(=O)c1ccc(C)cc1 [Example 17]
Result string: 6

* * *

Entries and their measured MIC follow.
system: Candida albicans; assay: MIC (Minimum Inhibitory Concentration); assay type: cell-based; conditions: read-out: MIC values, Candida albicans A 3168
Give just the number in µg/mL; leave the unit off.

                                   molecule  units_symbol  number
0  [C-]#[N+]C(=C1CCCCC1)S(=O)(=O)c1ccc(C)cc1         µg/mL       6
1  [C-]#[N+]C(=C1CCOCC1)S(=O)(=O)c1ccc(C)cc1 [Example 14a]         µg/mL       6
2  Clc1ccc(COC(Cn2ccnc2)c2ccc(Cl)cc2Cl)c(Cl)c1 (stereo not drawn) [miconazole, reference compound]         µg/mL     100
3  [C-]#[N+]C(=C1CCSCC1)S(=O)(=O)c1ccc(C)cc1 [Example 16a]         µg/mL       3
4  [C-]#[N+]C(=C1CCCC1)S(=O)(=O)c1ccc(C)cc1         µg/mL       6

Kindly consider the entry below.
Query string: Tell me MIC reported for [C-]#[N+]C(C1=CCCCCCC1)S(=O)(=O)c1ccc(C)cc1 (stereo not drawn)
Result string: 6

* * *

Entries and their measured log10 MIC follow.
tested on: Candida albicans; assay: MIC (Minimum Inhibitory Concentration); type: cell-based; conditions: read-out: MIC values, Candida albicans A 3190
Response schema: value (number) is log10 of MIC in units of µg/mL.

Study these solved cases before continuing.
In [3]: df
Out[3]:
                                   compound  reported_endpoint  number
0    [C-]#[N+]C(=C1CCCCC1)S(=O)(=O)c1ccccc1          log10 MIC    0.48
1  [C-]#[N+]C(=C1CCOCC1)S(=O)(=O)c1ccc(C)cc1 [Example 14a]          log10 MIC    1.10
2  [C-]#[N+]C(=C1CCSCC1)S(=O)(=O)c1ccc(C)cc1 [Example 16a]          log10 MIC    1.40
3  [C-]#[N+]C(=C1C2CC3CC(C2)CC1C3)S(=O)(=O)c1ccc(C)cc1          log10 MIC    2.00
4  [C-]#[N+]C(C1=CCCCCC1)S(=O)(=O)c1ccc(C)cc1 (stereo not shown) [Example 18b]          log10 MIC    1.10
5  [C-]#[N+]C(C1=CCCCCCC1)S(=O)(=O)c1ccc(C)cc1 (stereo not shown)          log10 MIC    0.78

Query string: Tell me log10 MIC reported for [C-]#[N+]C(=C1CCCC1)S(=O)(=O)c1ccc(C)cc1
Result string: 0.18

Query string: Tell me log10 MIC reported for [C-]#[N+]C(=C1CCCCC1)S(=O)(=O)c1ccc(C)cc1
Result string: 0.48

Query string: Tell me log10 MIC reported for [C-]#[N+]C(=C1CCCCCC1)S(=O)(=O)c1ccc(C)cc1 [Example 18a]
Result string: 0.48

* * *

Entries and their measured MIC follow.
system: Candida albicans; assay: MIC (Minimum Inhibitory Concentration); format: cell-based; settings: read-out: MIC values, Candida albicans A 3184
Show the value, then the unit it is measured in.

Study these solved cases before continuing.
>>> df
                                   compound       target_desc  reported_endpoint     result
0  [C-]#[N+]C(=C1C2CC3CC(C2)CC1C3)S(=O)(=O)c1ccc(C)cc1 [Example 2]  Candida albicans                MIC  0.8 µg/mL
1  [C-]#[N+]C(C1=CCCCCCC1)S(=O)(=O)c1ccc(C)cc1 (centres unmarked) [Example 20]  Candida albicans                MIC    6 µg/mL
2  [C-]#[N+]C(=C1CCCCCC1)S(=O)(=O)c1ccc(C)cc1 [Example 18a]  Candida albicans                MIC    3 µg/mL
3  [C-]#[N+]C(=C1CCCC1)S(=O)(=O)c1ccc(C)cc1 [Example 9]  Candida albicans                MIC  1.5 µg/mL

Kindly consider the entry below.
Query string: Tell me MIC reported for [C-]#[N+]C(=C1CCCCC1)S(=O)(=O)c1ccccc1 [Example 25]
Result string: 1.5 µg/mL

* * *

tested on: Candida albicans; test: MIC (Minimum Inhibitory Concentration); assay type: cell-based; settings: Candida albicans A 3167, read-out: MIC values
reported_endpoint: MIC (µg/mL)
Give just the number in µg/mL; leave the unit off.

Study these solved cases before continuing.
molecule	MIC / µg/mL
[C-]#[N+]C(=Cc1ccco1)S(=O)(=O)c1ccc(C)cc1	0.4
[C-]#[N+]C(=C(C)c1ccc([N+](=O)[O-])cc1)S(=O)(=O)c1ccc(C)cc1	1.5

Query string: Tell me MIC reported for [C-]#[N+]C(=C(C)c1ccccc1)S(=O)(=O)c1ccc(C)cc1
Result string: 3

Query string: Tell me MIC reported for [C-]#[N+]C(=C(C)c1cccs1)S(=O)(=O)c1ccc(C)cc1
Result string: 1.5

Query string: Tell me MIC reported for [C-]#[N+]C(C1=CCOCC1)S(=O)(=O)c1ccc(C)cc1 (stereo not shown) [Example 14b]
Result string: 6

Query string: Tell me MIC reported for [C-]#[N+]C(=Cc1cccn1C)S(=O)(=O)c1ccc(C)cc1
Result string: 3

Query string: Tell me MIC reported for [C-]#[N+]C(=C(C)C)S(=O)(=O)c1ccc(C)cc1
Result string: 25

Query string: Tell me MIC reported for [C-]#[N+]C(=C(C)c1ccco1)S(=O)(=O)c1ccc(C)cc1
Result string: 0.4

Query string: Tell me MIC reported for [C-]#[N+]C(=C(CCCC)c1ccccc1)S(=O)(=O)c1ccc(C)cc1
Result string: 50

Query string: Tell me MIC reported for C[C@@H]1C/C=C/C=C/C=C/C=C/[C@H](O[C@@H]2O[C@H](C)[C@@H](O)[C@H](N)[C@@H]2O)C[C@@H]2O[C@](O)(C[C@@H](O)C[C@H]3O[C@@H]3/C=C/C(=O)O1)C[C@H](O)[C@H]2C(=O)O [natamycin, reference compound]
Result string: 1.5

Query string: Tell me MIC reported for [C-]#[N+]C(C1=CCSCC1)S(=O)(=O)c1ccc(C)cc1 (stereo not shown) [Example 16b]
Result string: 3
